All figures here come from ChEMBL document CHEMBL1201862.

Each entry below carries its reported GI50.
tested on: UACC-62; assay: NCI tumour cell line growth inhibition, 48 h
The source made the active and inactive calls. No stated cut-off is given here; in the data, active = GI50 up to about 1.1 µM and inactive = higher.

{"columns": ["MOLECULE", "GI50"],
 "data": [
  ["COc1cc2c(cc1Oc1ccc(OC)c3c1CC1c4c(cc(OC)c(OC)c4-3)CCN1C)CC1c3c(cc(OC)c(OC)c3-2)CCN1C (configuration not stated)", "1.97 µM (inactive)"]
]}

Prompt: Recorded GI50 of COC(=O)C(=O)C(C(=O)C(=O)Nc1ccc([N+](=O)[O-])cc1)c1nc2ccccc2nc1O (configuration not stated) , please.
Completion: 19.6 µM (inactive)

Prompt: // GI50 lookup, key: `CN(C)c1ccc(/C=C/C=C(/C#N)c2ccccc2)cc1`
Completion: 19.2 µM (inactive)

Prompt: Quick one: GI50 of `CC(=O)c1ccc(N2CCN(C3=CC(=O)c4c(O)ccc(O)c4C3=O)CC2)cc1` ?
Completion: 31.4 µM (inactive)

Prompt: May I ask what GI50 has been recorded for CN1CCC(O)(OC(=O)C(c2ccccc2)C2(O)CCCC2)CC1 (configuration not stated) ?
Completion: > 100 µM (inactive)

Prompt: So what's the measured GI50 for this one? CN1C(=O)C(CC=O)(C(C)(C)C)c2ccccc21 (configuration not stated)
Completion: 93.5 µM (inactive)

Prompt: Need GI50 of `O=C(c1ccccc1F)c1c(NCc2ccccc2)c(=O)c1=O` , thanks.
Completion: > 100 µM (inactive)
